Assay explanation: Fraction unbound in C57BL/6J mouse implanted with mouse BaF3 cells transfected with MER in at 3 to 100 mg/kg, po bid for 6 days
Assay type: ADME, organism-based
Condition parameters: in vivo, dose 3-100 mg/kg, time 6 day
Below, each entry is listed alongside its reported fraction unbound at 144 h.
Give the figure only, with no unit attached.

Q. May I ask what fraction unbound at 144 h has been recorded for Cc1cc(-c2c(C)nn(C)c2C)cnc1-c1nnc(N(C)Cc2ccc3ncc(-c4ccc(CN(C)C)cc4)n3c2)o1 ?
A. 0.076

Q. Next record, please: CN1CCN(Cc2ccc(-c3ccc(CO[C@H]4CCC[C@@H]4NC(=O)c4cc(-c5cnn(C)c5)cnc4N)cc3)cc2)CC1
A. 0.14
